# target_or_test_system: human glucagon receptor (human, UniProt P47871 26-477)
# Sequence (P47871 26-477): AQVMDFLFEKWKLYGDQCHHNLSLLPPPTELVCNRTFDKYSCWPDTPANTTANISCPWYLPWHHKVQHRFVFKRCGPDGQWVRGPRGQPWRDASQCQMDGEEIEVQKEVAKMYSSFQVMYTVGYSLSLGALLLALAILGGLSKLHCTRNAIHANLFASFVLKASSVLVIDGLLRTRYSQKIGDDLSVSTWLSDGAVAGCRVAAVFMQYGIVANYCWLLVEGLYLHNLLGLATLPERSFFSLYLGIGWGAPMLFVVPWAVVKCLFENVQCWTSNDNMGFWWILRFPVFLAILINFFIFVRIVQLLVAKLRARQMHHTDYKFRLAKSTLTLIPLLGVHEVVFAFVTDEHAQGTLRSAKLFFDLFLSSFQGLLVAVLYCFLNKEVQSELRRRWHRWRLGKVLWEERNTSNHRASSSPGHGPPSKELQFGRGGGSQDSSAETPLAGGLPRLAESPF
# assay_details: cell-based or functional assay
Non-standard residues stand in square brackets, D forms with d. No end group written: not given here. Aib = CC(C)(N)C(=O)O
measured_parameter: in vitro activity (%, relative to SEQ ID NO: 1); cAMP assay, from EC50

> print(dat)
                                     binder  measured
1  Y[Aib]QGTFTSDYSKYLDSCDADDFVVWLINT [glucagon derivative of SEQ ID NO: 10]    < 0.1%
2  HSQGTFTSDYSKYLDSCDAQDFVQWLMNT [glucagon derivative of SEQ ID NO: 4]    < 0.1%
3  Y[Aib]QGTFTSDYSKYLDSRRACDFRLWLMNT [glucagon derivative of SEQ ID NO: 18]    < 0.1%
